Data origin: patent US20060063917A1

Readings of ELISA (O.D. λ = 405 nm) (O.D. λ = 405 nm) for the listed binders
target: recombinant His.Tag AcNPV DBP (Autographa californica nucleopolyhedrovirus DNA-binding protein) (Autographa californica nucleopolyhedrovirus (AcNPV)); test: ELISA: FliTrx protein solution coated, 6 ug His.Tag AcNPV DBP added, detected with anti-penta-His and goat anti-mouse IgG-AP; mean of duplicate; negative controls (empty plates) 0.14
Sequence (P41430 whole entry): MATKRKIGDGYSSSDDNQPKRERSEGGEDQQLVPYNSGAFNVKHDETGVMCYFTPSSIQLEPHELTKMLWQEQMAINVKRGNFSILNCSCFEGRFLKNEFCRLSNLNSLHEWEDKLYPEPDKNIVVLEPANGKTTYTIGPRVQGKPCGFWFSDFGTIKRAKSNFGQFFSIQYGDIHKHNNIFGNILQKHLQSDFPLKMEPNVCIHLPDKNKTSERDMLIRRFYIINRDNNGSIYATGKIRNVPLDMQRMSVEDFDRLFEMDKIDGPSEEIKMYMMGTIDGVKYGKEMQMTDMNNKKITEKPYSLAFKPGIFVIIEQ
No end group written: not given here.
Please give the numeric answer without any surrounding text.

[[record]]
binder = "AGRKGERGSVLQ (peptide, part only; not given: FliTrx scaffold, part only, also: inserted in thioredoxin active-site loop of FliTrx fusion protein) [FliTrx selected peptide ligand No. 1 (…), as FliTrx protein solution]"
number = 1.21

[[record]]
binder = "AMLRAACVVRSM (peptide, part only; not given: FliTrx scaffold, part only, also: inserted in thioredoxin active-site loop of FliTrx fusion protein) [FliTrx selected peptide ligand No. 2 (…), as FliTrx protein solution]"
number = 0.56

[[record]]
binder = "PAQAQTRRRRPR (peptide, part only; not given: FliTrx scaffold, part only, also: inserted in thioredoxin active-site loop of FliTrx fusion protein) [FliTrx selected peptide ligand No. 5 (…), as FliTrx protein solution]"
number = 1.35


Field request: ELISA (O.D. λ = 405 nm) (O.D. λ = 405 nm) | item: GGGGRRSGGACP (peptide, part only; not given: FliTrx scaffold, part only, also: inserted in thioredoxin active-site loop of FliTrx fusion protein) [FliTrx selected peptide ligand No. 4 (…), as FliTrx protein solution]
1.13

Again, but for ADYGKGLRRAMG (peptide, part only; not given: FliTrx scaffold, part only, also: inserted in thioredoxin active-site loop of FliTrx fusion protein) [FliTrx selected peptide ligand No. 3 (…), as FliTrx protein solution]
1.11
